Entry source: patent US20250027068

target: pooled human IgG (human IgG1,2,3 and 4)
Property: Enzyme Activity Endpoint Assay: scIgG
The number alone won't do; follow it with the unit.

(Q) Need Enzyme Activity Endpoint Assay: scIgG of PRT-244 (protein) MVTSVWTKGVTPPANFTQGEDVFHAPYVANQGWYDITKTFNGKDDLLCGAATAGNMLHWWFDQNKDQIKRYLEEHPEKQKINFNGEQMFDVKEAIDTKNHQLDSKLFEYFLEKAFPNLSTKHLGVFPDHVIDMFINGYRLSLLNHGPTPVKEGSKDPRGGIFDAVFTRGDQSKLLTSRHDFKEKNLKEISDLIKKELTEGKALGLSHTYANVRINHVINLWGADFDSNGNLKAIAVTDSDSNASIGMKKYFVGVNSSGKVAISAKEIKEDNIGAQVLGLFTLSTGQDSWNQTN , thanks.
(A) 0 ng/µL
